- study.system: T1, human PD-1 (#PD1-H82E4, AcroBiosystems) (human, UniProt Q15116 25-167)
- T1 construct: bought
- T1 sequence (Q15116 25-167 limits assumed): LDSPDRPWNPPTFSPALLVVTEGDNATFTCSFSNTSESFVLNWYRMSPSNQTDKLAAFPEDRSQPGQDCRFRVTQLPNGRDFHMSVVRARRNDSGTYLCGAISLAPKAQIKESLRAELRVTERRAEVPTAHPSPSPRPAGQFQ
- method.notes: SPR, PD-1 on captured IgG1
quantity.kind: koff (s⁻¹)

- binder: "ICW519 (antibody, human IgG1, V domains shown, human IgG1) VH: VQLVQSGAEVKKPGASVKVSCKASGYTFTNFYIHWVRQAPGQGLEWMGSIYPNYGITAYNQKFQDRVTMTVDTSTSTAYMELRSLRSDDTAVYYCARGYSYAMDYWGQGTTVTVSS VL: DIQMTQSPSSVSASVGDRVTITCSASQGISGDLNWYQQKPGKAPKLLIYHTSQLHSDVPSRFSGSGSGTDFTLTISSLQPEDFATYYCQGYSKDLLTFGGGTKLEIK"
  observed.value: 0.000187
- binder: "DKR699 (antibody, human IgG1, V domains shown, human IgG1) VH: VQLVQSGAEVKKPGASVKVSCKASGYTFTNFYIHWVRQAPGQGLEWMGSIYPNYGDTAYNQKFKDRVTMTVDTSTSTAYMELRSLRSDDTAVYYCARGYSYAMDYWGQGTTVTVSS VL: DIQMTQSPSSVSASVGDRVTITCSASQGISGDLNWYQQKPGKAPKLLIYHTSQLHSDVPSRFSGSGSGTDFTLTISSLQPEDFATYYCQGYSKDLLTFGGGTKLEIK"
  observed.value: 0.000121
- binder: "QGA408 (antibody, human IgG1, V domains shown, human IgG1) VH: VQLVQSGAEVKKPGASVKVSCKASGYTFTNFYIHWVRQAPGQGLEWMGSIYPNYGITAFNQKFKDRVTMTVDTSTSTAYMELRSLRSDDTAVYYCARGYSYAMDYWGQGTTVTVSS VL: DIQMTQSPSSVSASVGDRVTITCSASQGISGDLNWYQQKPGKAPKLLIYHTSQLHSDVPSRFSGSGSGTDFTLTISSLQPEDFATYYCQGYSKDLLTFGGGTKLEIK"
  observed.value: 0.000208
- binder: "JPK663 (antibody, human IgG1, V domains shown, human IgG1) VH: VQLVQSGAEVKKPGASVKVSCKASGYTFTNFYIHWVRQAPGQGLEWMGSIYPNYGITAYNQKFKDRVTMTVDTSTSTAYMELRSLRSDDTAVYYCARGYSYAMDYWGQGTTVTVSS VL: DIQMTQSPSSVSASVGDRVTATCSASQGISGDLNWYQQKPGKAPKLLIYHTSQLHSDVPSRFSGSGSGTDFTLTISSLQPEDFATYYCQGYSKDLLTFGGGTKLEIK"
  observed.value: 0.000144
- binder: "XVT458-z2-m6 (antibody, human IgG1, V domains shown, human IgG1; also called anti-PD-1 antibody clone XVT458-z2-m6) VH: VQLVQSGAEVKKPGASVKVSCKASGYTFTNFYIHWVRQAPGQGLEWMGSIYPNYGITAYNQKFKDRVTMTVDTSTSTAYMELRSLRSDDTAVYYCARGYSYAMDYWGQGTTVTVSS VL: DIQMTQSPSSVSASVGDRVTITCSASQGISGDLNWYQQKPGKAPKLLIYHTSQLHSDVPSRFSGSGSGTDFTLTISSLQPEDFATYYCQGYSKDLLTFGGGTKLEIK"
  observed.value: 0.000174
